Provide the reported EC50 CreLuc hGLP1R 0.5% hP of each item.
Biological target: human GLP-1 receptor (human, UniProt P43220 24-463)
Assay: cell-based or functional assay
Starred links: 1 amine or outer side, 2 acyl side, 3 side chain; linkers in the order of their positions; H or OH if unused. Non-standard residues stand in square brackets, D forms with d. Groups on a side chain read outwards from the residue. No end group written: not given here. *: point of attachment. C18 diacid = O=C(O)CCCCCCCCCCCCCCCCC(=O)*; γGlu = O=C(O)[C@H](CCC(=O)[*:2])N[*:1]; AEEA = NCCOCCOCC(=O)O; Aib = CC(C)(N)C(=O)O
Give bare numbers, in nM.

{"BINDER": "YXEGTFTSDYSIXLEEQAQXAFVEWLIKGGPSSGASLRHYYNWLTRQRY (Aib at 2, 13, 20; K28 side chain: C20DA-gGlu-gGlu-gGlu-gGlu-gGlu-gGlu-eLys; C-terminal NH2) [Compound 116]", "EC50 CreLuc hGLP1R 0.5% hP, nM": 0.14}
{"BINDER": "Y[Aib]EGTFTSDYSI[Aib]LEKQAQ[Aib]EFVQWLIKGGPSEGASLRHYYNWLTRQRY-NH2 (not fully specified (residue 28)) [Compound 164]", "EC50 CreLuc hGLP1R 0.5% hP, nM": 0.28}
{"BINDER": "YXEGTFTSDYSIXLEKQAQXAFVEYLIKGGPSSGASLRHYYNWLTRQRY (Aib at 2, 13, 20; K28 side chain: C20DA-gGlu-gGlu-gGlu-gGlu-gGlu-gGlu-eLys; C-terminal NH2) [Compound 135]", "EC50 CreLuc hGLP1R 0.5% hP, nM": 0.24}
{"BINDER": "Y[Aib]EGTFTSDYSI[Aib]LEKQAE[Aib]AFVQWLIK([AEEA-AEEA-γGlu-γGlu-γGlu-γGlu-C18 diacid])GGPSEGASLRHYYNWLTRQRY-NH2 [Compound 156]", "EC50 CreLuc hGLP1R 0.5% hP, nM": 0.18}
{"BINDER": "YXEGTFTSDYSILLEKQAQXAFVEWLIKGGPSSGASLRHYYNWLTRQRY (Aib at 2, 20; K28 side chain: C20DA-gGlu-Glu-gGlu-gGlu-gGlu-gGlu-eLys; C-terminal NH2) [Compound 104]", "EC50 CreLuc hGLP1R 0.5% hP, nM": 0.09}

Give one value of EC50 CreLuc hGLP1R 0.5% hP per listed binder.
1. Y[Aib]EGTFTSDYSI[Aib]LEKQAQ[Aib]AFVQWLIKGGPSEPASLRHYYNWLTRQRY-NH2 (not fully specified (residue 28)) [Compound 101]
2. YXEGTFTSDYSIXLEKQAQXAFVQWLIKGGPEEGASLRHYYNWLTRQRY (Aib at 2, 13, 20; K28 side chain: C18DA-gGlu-gGlu-gGlu-gGlu-gGlu-AHX; C-terminal NH2) [Compound 162]
3. YXEGTFTSDYSIXLEKQAQXAFVEWLIKGGPSSGISLRHYYNWLTRQRY (Aib at 2, 13, 20; K28 side chain: C20DA-gGlu-gGlu-gGlu-gGlu-gGlu-gGlu-eLys; C-terminal NH2) [Compound 94]
4. Y[Aib]EGTFTSDYSI[Aib]LEKQAQ[Aib]AFVQWLIK([AEEA-AEEA-γGlu-γGlu-γGlu-C18 diacid])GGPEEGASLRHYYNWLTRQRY-NH2 [Compound 144]

Output line:
1. 0.1
2. 0.2
3. 0.09
4. 0.16
